# Test system: L1210 leukemia ip in BDF1 mice, survival T/C
# Assay Remarks: NCI In Vivo Anticancer Drug Screen. Data for tumor model L1210 Leukemia (intraperitoneal) in B6D2F1 (BDF1) mice
# Conditions Used: endpoint: mean survival time; dose: 100.0 mg/kg/injection; schedule: Q01DX001 (ip); vehicle: carboxymethylcellulose (CMC); higher = longer survival
Toxic doses and inconclusive results are not listed.
Would you kindly list T/C for each of these compounds?

**Q:** # returns recorded T/C (system: L1210 leukemia ip in BDF1 mice, survival T/C) for `O=C(Nc1cccc2ccccc12)N1CCCc2ccccc21`
**A:** 98 % of control

**Q:** Now try `CCCCCCCC(=O)N(CC(C)C)CC(C)C` .
**A:** 102 % of control

**Q:** Now try `O=C(Nc1ccc(Cl)c(Cl)c1)OCCN(c1ccccc1)c1ccccc1` .
**A:** 88 % of control

**Q:** Now try `O=C1CCC=Cc2c(O)ccc(O)c21` .
**A:** 91 % of control

**Q:** Now try `Cc1ccc(NC(=O)Nc2c(C)cccc2C)cc1` .
**A:** 95 % of control

**Q:** Now try `Nc1nc(N)nc(CCc2nc(N)nc(N)n2)n1` .
**A:** 90 % of control

**Q:** Now try `CC(C)(C)c1cccc(C(=O)O)c1O` .
**A:** 97 % of control

**Q:** Now try `Cc1ccc(CC(=O)N2CCOCC2)cc1` .
**A:** 106 % of control

**Q:** Now try O=C(O/C(=N\N1N=NC(c2ccccc2)C1c1ccccc1)c1ccccc1)c1ccccc1 (centres undefined) .
**A:** 87 % of control

**Q:** Now try CC1=NN(c2ccccc2)C(=O)C1N=Nc1ccc(S(=O)(=O)Nc2ccccn2)cc1 (centres undefined) .
**A:** 97 % of control

**Q:** Now try `Cc1ccc(S(=O)(=O)Nc2cccc3cnccc23)cc1` .
**A:** 105 % of control

**Q:** Now try `O=C(SSC(=O)c1ccccc1)c1ccccc1` .
**A:** 94 % of control

**Q:** Now try `Cc1ccc(N=Nc2ccc([N+](=O)[O-])cc2)c([N+](=O)[O-])c1` .
**A:** 96 % of control

**Q:** Now try CCC(O)c1ccc2ccccc2c1 (centres undefined) .
**A:** 98 % of control
